// provenance: PubChem BioAssay (NCI)

# Test system: A549/ATCC NSCLC
# assayOverview: NCI-60 one-dose screen, 48 h (100 = growth as untreated, 0 = no growth, -100 = all killed)
# reportedConditions: 10 µM
The panel holds about 83,000 compounds, 20% with a hit somewhere; the sample as a whole holds those more often.
Assign class by growth: not lower than 40% means MET; lower than 40% means NOT MET.

>>> categorylabel("c1ccc2c(c1)Cc1ccccc1N2CCN1CCCCC1")
"MET"
>>> categorylabel("CC1=NN(C(=O)c2nn(-c3ccc(Cl)cc3)cc2O)C(=O)C1")
"MET"
>>> categorylabel("Cc1c(Cl)cccc1NC(=O)CN1CCOCC1")
"MET"
>>> categorylabel("CCN(CC)CCCC(C)Nc1c2ccc(Cl)cc2nc2ccc(OC)cc12 (stereo unspecified)")
"NOT MET"
>>> categorylabel("COc1cc2c(cc1OC)C(C(CCCCCC(CCC(C)C)C1NCCc3cc(OC)c(OC)cc31)CCC(C)C)NCC2 (stereo unspecified)")
"NOT MET"
>>> categorylabel("COc1cc2cc(Oc3ccc(NC(=O)Nc4cccc(C(F)(F)F)c4)cc3)c(C)nc2cc1OC")
"NOT MET"
>>> categorylabel("COc1ccc(N(C)c2ncnc3occ(C)c23)cc1")
"NOT MET"
>>> categorylabel("COc1ccc2nc3cc(Cl)ccc3c(Nc3cc(CN4CCCC4)c(O)c(CN4CCCC4)c3)c2n1")
"NOT MET"
>>> categorylabel("COc1ccccc1N1CCCSC1=Nc1ccccc1")
"MET"
>>> categorylabel("CCNc1nc(C(F)(F)F)nc2c1sc(=S)n2-c1ccccc1")
"MET"
>>> categorylabel("Cc1[nH]c2ccccc2c1/C=N/Nc1ncnc2sc3c(c12)CCN(CC(=O)OC(C)(C)C)C3")
"MET"
>>> categorylabel("O=C(NCCCNS(=O)(=O)c1ccc(Cl)cc1)Nc1ccc(-n2cc(-c3ccncc3)c(-c3ccc(Cl)c(O)c3)n2)cc1")
"NOT MET"
>>> categorylabel("CCOC(=O)c1sc2ncnc(Nc3ccc4c(cnn4C(=O)Nc4ccc(C)c(Cl)c4)c3)c2c1C")
"MET"
>>> categorylabel("COc1ccc(C2CC(c3cc(OC)c(OC)c(OC)c3)=NN2)cc1 (stereo unspecified)")
"MET"
>>> categorylabel("COc1cc(CNC(=O)C2CSC3(C)c4ccccc4C(=O)N23)cc(OC)c1OC (stereo unspecified)")
"MET"
>>> categorylabel("Clc1ccc(Cc2ccncc2)cc1")
"MET"
>>> categorylabel("NC(CSC(c1ccccc1)(c1ccccc1)c1cccc2ccccc12)C(=O)O (stereo unspecified)")
"MET"
>>> categorylabel("N#CCc1csc(Cc2ccccc2)n1")
"MET"
>>> categorylabel("COc1ccc(C(=O)c2cc3c(OC)c(OC)c(OC)cc3[nH]2)cc1")
"NOT MET"
>>> categorylabel("COc1cc(-c2csc(NC(=O)Nc3cc(C(F)(F)F)cc(C(F)(F)F)c3)n2)cc(OC)c1OC")
"NOT MET"
>>> categorylabel("O=C1NC(=O)c2c(CCCSc3nc4ccccc4c(=O)n3CCc3ccccc3)cccc21")
"MET"

====

# Test system: SW-620 colon
# assayOverview: NCI-60 one-dose screen, 48 h (100 = growth as untreated, 0 = no growth, -100 = all killed)
# reportedConditions: 10 µM
About 83,000 compounds went through this panel and 20% of them were active in at least one assay; those are over-represented in the sample as a whole.
Assign class by growth: not lower than 50% means MET; lower than 50% means NOT MET.

>>> categorylabel("CCCN(CCC)C(=O)[C@H](CC)[C@@H]1CC[C@@H](C)[C@@H]([C@H](C)[C@@H](O)[C@@H](C)C(=O)[C@H](CC)C2O[C@]3(C=C[C@@H](O)[C@]4(CC[C@@](C)([C@H]5CC[C@](O)(CC)[C@H](C)O5)O4)O3)[C@H](C)C[C@@H]2C)O1 (some centres undefined)")
"NOT MET"
>>> categorylabel("CC(=O)COc1ccc(Cl)cc1Cl")
"MET"
>>> categorylabel("COc1ccc(N(C)c2ncnc3occ(C)c23)cc1")
"NOT MET"
>>> categorylabel("C#CCOc1c(OC)cc(C(=O)/C(C)=C/c2cccc(N=[N+]=[N-])c2)cc1OC")
"NOT MET"
>>> categorylabel("COc1cc(-c2nn(-c3cccc(NC(=O)NCCNC(=O)c4ccccc4)c3)cc2-c2ccncc2)ccc1Cl")
"NOT MET"
>>> categorylabel("CCCCC1(O)CCCCC1")
"MET"
>>> categorylabel("CC[C@H]1OC(=O)[C@H](C)[C@@H](O[C@H]2C[C@@](C)(OC)[C@@H](O)[C@H](C)O2)[C@H](C)[C@@H](O[C@@H]2O[C@H](C)C[C@H](N(C)C)[C@H]2O)[C@](C)(OC)C/C(C)=C2/O[C@@]1(C)C=C2C")
"NOT MET"
>>> categorylabel("COc1cc(C2CC(c3ccccc3)=NN2C(C)=O)cc(OC)c1OC (centres undefined)")
"NOT MET"
>>> categorylabel("O=C1OC(C(Cl)(Cl)Cl)OC1C(Cl)(Cl)Cl (centres undefined)")
"MET"
>>> categorylabel("Nc1ccccc1NC(=O)c1ccc(CCCC(=O)Nc2ccc(C3CC3N)cc2)cc1 (centres undefined)")
"NOT MET"
>>> categorylabel("O=C(CCCSc1nc(-c2ccccc2)cc(-c2ccc(Cl)cc2)n1)NO")
"NOT MET"
>>> categorylabel("COc1ccc(-c2nn(-c3cccc(Cl)c3)cc2-c2cc(-c3ccccc3)[nH]c(=O)c2C#N)cc1")
"MET"
>>> categorylabel("NS(=O)(=O)c1ccc(Br)cc1")
"MET"
>>> categorylabel("CCCCCOC(=O)Nc1nc(=O)n(C2O[C@H](C)[C@@H](O)[C@H]2O)cc1F (some centres undefined)")
"MET"
>>> categorylabel("Cc1ccc2nc(Cl)c(-c3nc4ccccc4o3)cc2c1")
"MET"
>>> categorylabel("Cc1[nH]c2ccccc2c1/C=N/Nc1ncnc2sc3c(c12)CCN(CC(=O)OC(C)(C)C)C3")
"MET"
>>> categorylabel("Cc1cc(Cl)ccc1Nc1nc(C(F)(F)F)ccc1C(=O)N/N=C/c1c(Cl)cccc1Cl")
"NOT MET"
>>> categorylabel("CCOC(=O)c1cocc1C(=O)O")
"MET"
